test_target: T1, mesothelin on CHO-A9 cells (CHO-K1 stably transfected with the GPI-anchored C-terminal part of mesothelin) (Homo sapiens (Human), UniProt Q13421 287-598, GPI anchor)
T1 construct: In the immunoblots the protein stood in a denatured cell extract; also called mesothelin-expressing CHO-A9 cells
T1 sequence (Q13421 other isoform, or with tags, fused parts or gaps limits assumed): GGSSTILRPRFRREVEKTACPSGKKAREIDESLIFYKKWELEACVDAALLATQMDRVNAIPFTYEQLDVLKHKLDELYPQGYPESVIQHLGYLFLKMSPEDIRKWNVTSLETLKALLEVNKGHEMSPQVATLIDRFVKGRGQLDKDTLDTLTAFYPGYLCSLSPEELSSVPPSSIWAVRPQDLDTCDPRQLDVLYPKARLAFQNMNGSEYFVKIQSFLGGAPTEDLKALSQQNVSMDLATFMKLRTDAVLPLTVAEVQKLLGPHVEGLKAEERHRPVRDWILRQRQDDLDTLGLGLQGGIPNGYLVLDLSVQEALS
measurement_protocol: FACS with Scatchard analysis, IgG1 on CHO-A9 cells
recorded_metric: EC50 (pM)
Write down the numeric answer in pM and omit the unit.

Please review the entries below; each comes with its answer.
binder="MF-T IgG (antibody, V domains shown) VH: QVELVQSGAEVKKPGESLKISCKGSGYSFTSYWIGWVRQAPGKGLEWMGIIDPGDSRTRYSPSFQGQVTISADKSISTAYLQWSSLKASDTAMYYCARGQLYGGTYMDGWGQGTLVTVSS VL: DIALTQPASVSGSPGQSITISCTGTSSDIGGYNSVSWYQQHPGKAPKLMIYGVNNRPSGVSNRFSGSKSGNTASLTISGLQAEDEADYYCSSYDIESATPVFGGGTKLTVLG" unit_tag=pM measured_value=270
binder="MF-L IgG (antibody, V domains shown) VH: QVQLVESGGGLVQPGGSLRLSCAASGFTFSDYAMSWVRQAPGKGLEWVSAIMYDSSSTFYADSVKGRFTISRDNSKNTLYLQMNSLRAEDTAVYYCARINYIYKGVHFDYWGQGTLVTVSS VL: DIVLTQSPATLSLSPGERATLSCRASQIVSGYLAWYQQKPGQAPRLLIYGASSRATGVPARFSGSGSGTDFTLTISSLEPEDFATYYCQQYYNFSFTFGQGTKVEIKR" unit_tag=pM measured_value=70
binder="MF-226 IgG (antibody, V domains shown) VH: QVELVQSGAEVKKPGASVKVSCKASGYTFTGNYINWVRQAPGQGLEWMGIINPHGGDTKYAQKFQGRVTMTRDTSISTAYMELSSLRSEDTAVYYCARWHHGTWIFDYWGQGTLVTVSS VL: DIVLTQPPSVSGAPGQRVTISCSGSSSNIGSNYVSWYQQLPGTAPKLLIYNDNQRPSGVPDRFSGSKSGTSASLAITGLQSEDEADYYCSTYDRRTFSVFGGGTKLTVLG" unit_tag=pM measured_value=150
binder="MF-A IgG (antibody, V domains shown) VH: QVQLVQSGAEVKKPGSSVKVSCKASGGTFSSYYFSWVRQAPGQGLEWMGGIIPKFGSANYAQKFQGRVTITADESTSTAYMELSSLRSEDTAVYYCARRTSMDYWGQGTLVTVSS VL: DIALTQPASVSGSPGQSITISCTGTSSDVGGYNYVSWYQQHPGKAPKLMIYSVSKRPSGVSNRFSGSKSGNTASLTISGLQAEDEADYYCGAWAHMSLGKVFGGGTKLTVLG" unit_tag=pM measured_value=50

Read the next record carefully.
**Q:** What does the data say about its EC50? Entry: MF-J IgG (antibody, V domains shown) VH: QVELVQSGAEVKKPGESLKISCKGSGYSFTNYWIGWVRQMPGKGLEWMGVIMPSDSYTRYSPSFQGQVTISADKSISTAYLQWSSLKASDTAMYYCARYGHGMYGGALDVWGQGTLVTVSS VL: DIVLTQSPATLSLSPGERATLSCRASQSVRSSRLAWYQQKPGQAPRLLIYGASKRATGVPARFSGSGSGTDFTLTISSLEPEDFATYYCQQYYDFPPTFGQGTKVEIKR
**A:** 110
